Listing: inhibition of selected compounds
# target_of_assay: Lethal factor (Bacillus anthracis)
# test_protocol: Lethal factor protease inhibitors, Bacillus anthracis, multiplex microsphere cleavage assay, validation set (AID 588461)
# experimental_conditions: flow cytometry, at 10 µM, hits give high values
Calls of active or inactive are those of the source. No rule for the calls is given here.

Sample records with inhibition:
compound	target_of_assay	inhibition
CCOC(=O)C(NC(C)=O)C(O)c1ccc([N+](=O)[O-])cc1 (stereo not drawn)	Lethal factor (Bacillus anthracis)	-2.3% (inactive)
COc1cccc(OC)c1C(=O)Nc1nc2ccc([N+](=O)[O-])cc2s1	Lethal factor (Bacillus anthracis)	7.5% (inactive)
Cc1cccc(N2CCN(C(=S)c3ccccc3)CC2)c1	Lethal factor (Bacillus anthracis)	-2.9% (inactive)
CC(CCCC(C)(C)O)NC(=O)c1ccc(OC2CCN(C(=O)C3CC3)CC2)cc1 (stereo not drawn)	Lethal factor (Bacillus anthracis)	1% (inactive)
C[C@]12CC[C@H]3[C@@H](CCC4=CC(=O)CC[C@@]43C)[C@@H]1CC[C@@H]2C(=O)CO	Lethal factor (Bacillus anthracis)	-10% (inactive)
CC(C)N1C(=O)/C(=C\c2nc3ccccc3c(=O)[nH]2)c2ccccc21	Lethal factor (Bacillus anthracis)	-0.1% (inactive)
CCC12CN3CC(CC)(CN(C1)C31C(=O)N(C)c3ccc(C)cc31)C2=O (stereo not drawn)	Lethal factor (Bacillus anthracis)	-7.3% (inactive)
OCCC1CN(Cc2nc(-c3ccccc3)cs2)CCN1Cc1ccc(F)cc1 (stereo not drawn)	Lethal factor (Bacillus anthracis)	8.5% (inactive)
O=C(O)/C=C/c1cccc(OCc2ccccc2)c1	Lethal factor (Bacillus anthracis)	3.3% (inactive)
COc1ccccc1-c1ccc(/C=C2/C=C(CC(C)C)OC2=O)o1	Lethal factor (Bacillus anthracis)	7.1% (inactive)

Pending compound:
Query: Value lookup for inhibition; key = COc1cccc2cc(-c3ccccc3)c(=O)oc12
Response: 1.7% (inactive)
